ASSAY_OVERVIEW: NCI Yeast Anticancer Drug Screen. Data for the mlh1 rad18 strain (AID 175)
TEST_PARAMETERS: S. cerevisiae mlh1 rad18 strain growth inhibition; at 50.0 µM; active compounds read high
About 79,000 compounds went through this panel and 15% of them were active in at least one assay; those are over-represented in the sample as a whole.
Give measured growth inhibition for each item. Keep answers brief.
Answers are plain numbers, in %.

Please give growth inhibition, item by item, for the list that follows.
1. C=Cc1nc(N)nc(-c2ccc(C)cc2)n1
2. O=C1CCC/C1=C\c1ccccc1

1. 95.2
2. 2.2

Provide growth inhibition for all items below, preserving their order.
1. O=[N+]([O-])c1ccc(-c2nc3c(o2)CCC3)cc1
2. O=S(=O)(Sc1ccccc1)C(c1ccccc1)c1ccccc1
3. C=Cc1cc(=O)oc2cc(OC)ccc12
4. [Cl][Pt+2][Cl].[NH-]CC1(C[NH-])CCCC1
5. Oc1ccc2c(c1O)/C(=C/C=NCC1(O)OCC(O)C(O)C1O)C=N2 (configuration not stated)
6. CCC(=O)C(CC)(c1ccc(OC(C)=O)cc1)c1ccc(OC(C)=O)cc1

[3.25, 6.85, 93.8, -30, 77, -1.85]
